- Test system: HCT-116
- Assay Comment: Cytostatic activity against human HCT116 cells after 5 days by SRB assay
- Assay type: functional
- Experimental Setup: HCT-116, 120 h
// values below are reported log10 GI50
On a log10 scale: recorded GI50, unit nM.

Reference set (5 entries):
Nc1ncnc2c1c(-c1nccs1)cn2[C@@H]1O[C@H](CO)[C@@H](O)[C@H]1O; 1.97
Nc1ncnc2c1c(-c1cccs1)cn2[C@@H]1O[C@H](CO)[C@@H](O)[C@H]1O; 0.41
Nc1nc(Cl)nc2c1ncn2[C@@H]1O[C@H](CO)[C@@H](O)[C@@H]1F [CLOFARABINE]; 2.03
Nc1ncnc2c1c(-c1c[nH]cn1)cn2[C@@H]1O[C@H](CO)[C@@H](O)[C@H]1O; 0.48
Nc1ncnc2c1c(-c1cc[nH]c1)cn2[C@@H]1O[C@H](CO)[C@@H](O)[C@H]1O; 0.77

Request the reported log10 GI50 associated with `C#Cc1cn([C@@H]2O[C@H](CO)[C@@H](O)[C@H]2O)c2ncnc(N)c12` 0.30

Request the reported log10 GI50 associated with `Nc1ncnc2c1c(-c1cc[nH]n1)cn2[C@@H]1O[C@H](CO)[C@@H](O)[C@H]1O` 1.26

Request the reported log10 GI50 associated with `Nc1ncnc2c1c(-c1ccc3ccccc3c1)cn2[C@@H]1O[C@H](CO)[C@@H](O)[C@H]1O` 3.75
